# System: SH-SY5Y
# Experimental Details: Neuroprotective activity against amyloid beta(25 to 35)-induced cell damage in human SH-SY5Y cells assessed as increase in cell viability preincubated at 10 uM 2 hrs prior to challenge by MTT assay relative to control
# Assay type: functional
Attribute Measured: Activity (%)
Answer in %, number only, no unit symbol.

CC(C)C(=O)/C=C/[C@@H](C)[C@H]1CC[C@H]2[C@@H]3CC=C4C[C@@H](O)CC[C@]4(C)[C@H]3CC[C@]12C ... 15.98
CC(=O)/C(=C/C[C@@H](C)[C@H]1CC[C@H]2[C@@H]3CC=C4C[C@@H](O)CC[C@]4(C)[C@H]3CC[C@]12C)C(C)C ... 11.31
O=C(O[C@@H]1Cc2c(O)cc(O)cc2O[C@@H]1c1cc(O)c(O)c(O)c1)c1cc(O)c(O)c(O)c1 [EPIGALOCATECHIN GALLATE] ... 16.57

Problem: Quick check: Activity of CC1=C(C)C(=O)[C@@]2(CC[C@@](C)(CCC[C@H](C)CCC[C@H](C)CCCC(C)C)O2)[C@@](C)(O)C1=O ?
Solution: 13.85

* * *

# Test System: Tyrosine-protein phosphatase non-receptor type 1 (Homo sapiens)
# Experimental Details: Inhibition of purified recombinant PTP1B catalytic domain (unknown origin) using pNPP as substrate by spectrophotometry
Attribute Measured: IC50 (µM)

C=C[C@](O)(CC[C@@H](C)[C@H]1CC[C@H]2[C@@H]3CC=C4C[C@@H](O)CC[C@]4(C)[C@H]3CC[C@]12C)C(C)C ... 41.7

I = CC(C)C(=O)/C=C/[C@@H](C)[C@H]1CC[C@H]2[C@@H]3CC=C4C[C@@H](O)CC[C@]4(C)[C@H]3CC[C@]12C
II = CC(=O)/C(=C/C[C@@H](C)[C@H]1CC[C@H]2[C@@H]3CC=C4C[C@@H](O)CC[C@]4(C)[C@H]3CC[C@]12C)C(C)C
III = CC1=C(CCC(=O)OC/C=C(\C)CCC[C@H](C)CCC[C@H](C)CCCC(C)C)C(=O)NC1=O
IV = C/C(=C\CO)CCC[C@H](C)CCC[C@H](C)CCCC(C)C [TRANS-PHYTOL]
V = CC1=C(C)C(=O)[C@@]2(CC[C@@](C)(CCC[C@H](C)CCC[C@H](C)CCCC(C)C)O2)[C@@](C)(O)C1=O
Problem: Highest IC50 first, then in falling order down to the smallest. Reply format: the labels, ordered as requested.
Solution: I, IV, V, II, III
(I: 50 µM, IV: 32.6 µM, V: 11 µM, II: 3.8 µM, III: 2.3 µM)

* * *

The following compounds are shown together with reported inhibition values.
# Test System: Tyrosine-protein phosphatase non-receptor type 6 (Homo sapiens)
# Sequence (P29350 whole entry): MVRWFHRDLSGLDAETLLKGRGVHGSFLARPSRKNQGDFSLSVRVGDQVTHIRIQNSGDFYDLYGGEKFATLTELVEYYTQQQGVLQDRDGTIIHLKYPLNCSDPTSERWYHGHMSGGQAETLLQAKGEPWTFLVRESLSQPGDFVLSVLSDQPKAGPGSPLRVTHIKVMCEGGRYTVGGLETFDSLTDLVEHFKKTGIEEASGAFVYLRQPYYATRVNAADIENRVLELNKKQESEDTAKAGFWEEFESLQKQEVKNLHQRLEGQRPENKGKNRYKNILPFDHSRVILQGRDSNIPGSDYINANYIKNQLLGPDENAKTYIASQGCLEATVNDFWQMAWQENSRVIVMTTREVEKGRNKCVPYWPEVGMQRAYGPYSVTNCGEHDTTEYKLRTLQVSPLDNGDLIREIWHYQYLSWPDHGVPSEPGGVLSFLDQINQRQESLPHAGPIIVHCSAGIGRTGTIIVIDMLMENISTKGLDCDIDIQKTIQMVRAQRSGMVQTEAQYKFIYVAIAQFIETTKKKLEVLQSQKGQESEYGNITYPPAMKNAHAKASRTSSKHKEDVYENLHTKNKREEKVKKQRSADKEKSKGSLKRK
# Experimental Details: Inhibition of SHP1 (unknown origin) using pNPP as substrate at 20 ug/ml by spectrophotometry

Check out these entries, answers already filled in.
C=C[C@](O)(CC[C@@H](C)[C@H]1CC[C@H]2[C@@H]3CC=C4C[C@@H](O)CC[C@]4(C)[C@H]3CC[C@]12C)C(C)C ... < 50%
CC1=C(C)C(=O)[C@@]2(CC[C@@](C)(CCC[C@H](C)CCC[C@H](C)CCCC(C)C)O2)[C@@](C)(O)C1=O ... < 50%

// moving on: another record for inhibition
Problem: Quick check: inhibition of CC1=C(C)C(=O)C(CC[C@](C)(O)CCC[C@H](C)CCC[C@H](C)CCCC(C)C)=C(C)C1=O ?
Solution: < 50%

* * *

# Test System: M-phase inducer phosphatase 2 (Homo sapiens, UniProt P30305)
# Sequence (P30305 whole entry): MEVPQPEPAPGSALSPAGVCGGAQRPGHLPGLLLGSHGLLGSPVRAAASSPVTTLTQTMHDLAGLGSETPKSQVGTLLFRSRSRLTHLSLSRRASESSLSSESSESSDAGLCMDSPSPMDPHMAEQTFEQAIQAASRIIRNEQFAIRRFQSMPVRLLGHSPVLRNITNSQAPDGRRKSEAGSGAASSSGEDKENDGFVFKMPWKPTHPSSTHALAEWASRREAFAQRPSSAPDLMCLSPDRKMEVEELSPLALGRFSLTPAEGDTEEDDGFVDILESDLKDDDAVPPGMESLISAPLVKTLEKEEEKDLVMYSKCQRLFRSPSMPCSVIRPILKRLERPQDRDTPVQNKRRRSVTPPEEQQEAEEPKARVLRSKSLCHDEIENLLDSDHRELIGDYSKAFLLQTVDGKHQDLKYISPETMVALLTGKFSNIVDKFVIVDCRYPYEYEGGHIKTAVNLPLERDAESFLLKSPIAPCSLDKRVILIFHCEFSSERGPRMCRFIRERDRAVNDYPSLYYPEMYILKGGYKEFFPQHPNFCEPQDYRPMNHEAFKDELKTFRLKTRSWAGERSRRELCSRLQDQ
Attribute Measured: pIC50
// field semantics: pIC50 = negative decimal log of concentration (mol/L)

CC1=C(CCC(=O)OC/C=C(\C)CCC[C@H](C)CCC[C@H](C)CCCC(C)C)C(=O)NC1=O ... 4.37
CC1=C(C)C(=O)C(CC[C@](C)(O)CCC[C@H](C)CCC[C@H](C)CCCC(C)C)=C(C)C1=O ... 4.63

Problem: Quick check: pIC50 of CC1(C)CC[C@]2(C(=O)O)CC[C@]3(C)C(=CC[C@@H]4[C@@]5(C)CC[C@H](O)C(C)(C)[C@@H]5CC[C@]43C)[C@@H]2C1 ?
Solution: 6.01

* * *

# Test System: Tyrosine-protein phosphatase non-receptor type 2 (Homo sapiens, UniProt P17706)
# Sequence (P17706 whole entry): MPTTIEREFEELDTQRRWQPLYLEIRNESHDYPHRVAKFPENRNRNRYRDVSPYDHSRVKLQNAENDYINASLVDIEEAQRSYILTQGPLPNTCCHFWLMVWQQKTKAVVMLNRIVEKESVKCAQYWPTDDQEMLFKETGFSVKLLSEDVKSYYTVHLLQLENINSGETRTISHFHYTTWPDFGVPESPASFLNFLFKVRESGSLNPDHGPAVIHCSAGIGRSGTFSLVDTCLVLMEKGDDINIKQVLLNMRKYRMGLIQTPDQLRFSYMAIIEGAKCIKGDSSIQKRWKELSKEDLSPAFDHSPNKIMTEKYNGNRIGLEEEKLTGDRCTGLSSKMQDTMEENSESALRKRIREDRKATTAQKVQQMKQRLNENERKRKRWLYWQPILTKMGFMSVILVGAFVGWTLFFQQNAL
Attribute Measured: IC50 (µM)
Answer in µM, number only, no unit symbol.

Problem: Quick check: IC50 of CC1=C(C)C(=O)C(CC[C@](C)(O)CCC[C@H](C)CCC[C@H](C)CCCC(C)C)=C(C)C1=O ?
Solution: 35.1

* * *

# Test System: Tyrosine-protein phosphatase non-receptor type 1 (Homo sapiens)
# Sequence (P18031 whole entry): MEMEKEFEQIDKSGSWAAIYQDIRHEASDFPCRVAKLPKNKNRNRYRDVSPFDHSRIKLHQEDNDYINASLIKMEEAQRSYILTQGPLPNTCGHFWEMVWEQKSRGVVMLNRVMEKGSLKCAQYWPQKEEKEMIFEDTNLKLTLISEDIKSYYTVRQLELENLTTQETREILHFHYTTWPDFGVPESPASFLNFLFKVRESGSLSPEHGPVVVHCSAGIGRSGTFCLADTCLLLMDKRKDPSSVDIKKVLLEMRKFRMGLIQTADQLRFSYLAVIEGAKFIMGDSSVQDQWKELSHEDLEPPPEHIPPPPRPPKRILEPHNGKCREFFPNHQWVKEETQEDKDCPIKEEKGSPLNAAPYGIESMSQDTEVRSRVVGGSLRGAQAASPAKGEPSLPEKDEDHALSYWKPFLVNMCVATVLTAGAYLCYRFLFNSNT
# Experimental Details: Inhibition of purified recombinant PTP1B catalytic domain (unknown origin) using pNPP as substrate by spectrophotometry
The following molecules are shown together with reported IC50 values.
Answer in µM, number only, no unit symbol.

Check out these entries, answers already filled in.
CC1=C(C)C(=O)C(CC[C@](C)(O)CCC[C@H](C)CCC[C@H](C)CCCC(C)C)=C(C)C1=O ... 3.85
C=C[C@@](O)(CC[C@@H](C)[C@H]1CC[C@H]2[C@@H]3CC=C4C[C@@H](O)CC[C@]4(C)[C@H]3CC[C@]12C)C(C)C ... 10.3

// moving on: another record for IC50
Problem: Quick check: IC50 of CC(=O)OC/C=C(\C)CCC[C@H](C)CCC[C@H](C)CCCC(C)C ?
Solution: 50
